procedureSummary: qHTS assay to identify small molecule agonists of the RXR signaling pathway - cell viability counter screen (AID 1159529); note: nearly all actives have a fitted effect of over 50% in size; note: potency is the fitted concentration of half-maximal effect
details: RXR-alpha-bla HEK293T viability, CellTiter-Glo, 16 h; series mostly up to 76.8 µM
Records with an inconclusive call do not appear. Active and inactive are the calls of the source. Calls come from the whole dose curve; as a rule, active = well fitted cell-killing curve with a large enough effect in the repeat runs; inconclusive = weak or mixed curves, or effect the other way; inactive = no such curve, though single readings can be large or run the other way.
assayEndpoint: Potency

Look over these answered cases.
>>> df
                                   compound       measurement
0  CCN(CC)CCNC(=O)c1c(C)[nH]c(/C=C2\C(=O)Nc3ccc(F)cc32)c1C  7.56 µM (active)
1        CCCCCCCCCCCC[N+](C)(C)CCCCCCCCCCCC  15.5 µM (active)
2           Cc1cccc2c1cc1ccc3cccc4ccc2c1c34          inactive
3                    O=C(O)c1ccc(Cl)c(Cl)c1          inactive
4  Oc1ccc(C2(c3ccc(O)cc3)CC3CC2C2CCCC32)cc1 (stereo not given)  16.7 µM (active)
5                      Nc1cc(C(F)(F)F)ccc1S  8.49 µM (active)
6  COC(=O)C1=C(C)NC(C)=C(C(=O)OCCc2ccc(N3CCN(C(c4ccccc4)c4ccccc4)CC3)cc2)C1c1cccc([N+](=O)[O-])c1 (stereo not given)          inactive
7  CCCCc1oc2ccc(NS(C)(=O)=O)cc2c1C(=O)c1ccc(OCCCN(CCCC)CCCC)cc1  9.52 µM (active)

// Potency lookup, compound = CCN(C(=O)N(CC)c1ccccc1)c1ccccc1 , result: inactive

// Potency lookup, compound = CCCCC(CC)COP(=O)(O)OCC(CC)CCCC (stereo not given) , result: inactive

====

procedureSummary: qHTS assay to identify small molecule agonists of the hypoxia (HIF-1) signaling pathway - cell viability counter screen (AID 1224844); note: nearly all actives have a fitted effect of over 50% in size
details: HRE-bla ME-180 viability, CellTiter-Glo luminescence, 17 h; series mostly up to 76.8 µM
Records with an inconclusive call do not appear. Active and inactive are the calls of the source. The call rests on the fitted dose curve.
Return exactly one item of active, inactive

Any idea what this test logged for CN(C)CCCOC1(Cc2ccccc2)CCCCCC1 ? inactive

Any idea what this test logged for OC1(c2ccc(Cl)c(C(F)(F)F)c2)CCN(CCCC(c2ccc(F)cc2)c2ccc(F)cc2)CC1 ? active

Any idea what this test logged for CC(=O)SC[C@@H](Cc1ccccc1)C(=O)NCC(=O)OCc1ccccc1 ? inactive

Any idea what this test logged for O=C(c1ccc(O)cc1O)c1ccc(O)cc1O ? inactive

Any idea what this test logged for CCCCCOc1ccccc1/C(=C\SC)n1ccnc1 ? active

Any idea what this test logged for N/C(=N\N=C\c1ccc(Cl)cc1)N/N=C/c1ccc(Cl)cc1 ? active

Any idea what this test logged for O=C(Nc1cccc([N+](=O)[O-])c1)c1cc2ccccc2cc1O ? inactive

Any idea what this test logged for CCCCCCC[N+](CC)(CC)CCCCc1ccc(Cl)cc1 ? inactive

Any idea what this test logged for Cc1cc(N)c(S(=O)(=O)O)cc1Cl ? inactive

Any idea what this test logged for Cc1cc(O)c(C(C)(C)C)cc1C(C)(C)C ? active

Any idea what this test logged for Oc1ccc(Cl)cc1Sc1cc(Cl)ccc1O ? active

Any idea what this test logged for CCC1OCC(COc2ccc(Oc3ccccc3)cc2)O1 (configuration not stated) ? inactive

Any idea what this test logged for OCCN1CCN(CC/C=C2/c3ccccc3Sc3ccc(C(F)(F)F)cc32)CC1 ? active

Any idea what this test logged for CCCCc1oc2ccc(NS(C)(=O)=O)cc2c1C(=O)c1ccc(OCCCN(CCCC)CCCC)cc1 ? active

Any idea what this test logged for CC(C)n1nc(-c2cc3cc(O)ccc3[nH]2)c2c(N)ncnc21 ? active

Any idea what this test logged for NNc1nc(-c2ccc(N)cc2)cs1 ? inactive

Any idea what this test logged for C1CCCC1 ? inactive

Any idea what this test logged for O=C(NO)C1(NS(=O)(=O)c2ccc(Oc3ccc(F)cc3)cc2)CCOCC1 ? inactive

Any idea what this test logged for COc1cc(-c2ccc(N=C=O)c(OC)c2)ccc1N=C=O ? inactive

Any idea what this test logged for CC(C)(C)NC(=O)[C@@H]1C[C@@H]2CCCC[C@@H]2CN1C[C@@H](O)[C@H](Cc1ccccc1)NC(=O)[C@H](CC(N)=O)NC(=O)c1ccc2ccccc2n1 ? active

Any idea what this test logged for O=C(O)c1cc(O)c2c(c1)C(=O)c1cccc(O)c1C2=O ? inactive

Any idea what this test logged for CC1=C(C(=O)OC(C)C)C(c2cccc([N+](=O)[O-])c2)C(C(=O)OC2CN(C(c3ccccc3)c3ccccc3)C2)=C(N)N1 (configuration not stated) ? active

Any idea what this test logged for CC1(C)CCC(C)(C)c2cc(C(=O)Nc3ccc(C(=O)O)cc3)ccc21 ? inactive

Any idea what this test logged for CCCCCCCCn1sc(Cl)c(Cl)c1=O ? active

Any idea what this test logged for Nc1c(Cl)cc(Cl)cc1Cl ? inactive

Any idea what this test logged for C/C=C1/C(=O)C[C@H]2[C@@H]3CCC4=CC(=O)CC[C@]4(C)[C@H]3CC[C@]12C ? inactive

Any idea what this test logged for CCCCCCCCCCCCCCCS(=O)(=O)Oc1ccccc1 ? inactive

Any idea what this test logged for Clc1ccc2nsnc2c1NC1=NCCN1 ? inactive

Any idea what this test logged for NC(=NCCCCCCN=C(N)/N=C(\N)Nc1ccc(Cl)cc1)/N=C(\N)Nc1ccc(Cl)cc1 ? active

Any idea what this test logged for CCN(C(=O)N(CC)c1ccccc1)c1ccccc1 ? inactive

Any idea what this test logged for O=C1C=CC(=O)N1c1ccc(Cc2ccc(N3C(=O)C=CC3=O)cc2)cc1 ? active

Any idea what this test logged for C[C@@H](NCCCc1cccc(C(F)(F)F)c1)c1cccc2ccccc12 ? active

Any idea what this test logged for O=c1[nH]sc2cc(Cl)ccc12 ? active

Any idea what this test logged for OCc1c[nH]c2ccccc12 ? inactive

Any idea what this test logged for CS(=O)(=O)CCNCc1ccc(-c2ccc3ncnc(Nc4ccc(OCc5cccc(F)c5)c(Cl)c4)c3c2)o1 ? active

Any idea what this test logged for N=C1C=CC(=C(c2ccc(N)cc2)c2ccc(N)cc2)C=C1 ? inactive

Any idea what this test logged for O=C1CCCc2c1cc1ccc3cccc4ccc2c1c34 ? active

Any idea what this test logged for Cc1ccc(O)c2ncccc12 ? inactive

Any idea what this test logged for O=C(OCC1CO1)C1CCCCC1C(=O)OCC1CO1 (configuration not stated) ? inactive

Any idea what this test logged for O=C(O)c1c(Cl)cccc1Cl ? inactive

Any idea what this test logged for CCCCCCCCCCCCCCCC[N+](C)(C)CCN(Cc1ccc(OC)cc1)c1ncccn1 ? active

Any idea what this test logged for CCCCCCCCCOC(=O)c1ccc(O)cc1 ? active

Any idea what this test logged for CCCC/C=C/CCCCO ? inactive

Any idea what this test logged for Cc1[nH]cnc1C[C@H]1CCc2c(C)c3ccccc3n2C1=O ? inactive

Any idea what this test logged for CCOC(=O)/C=C(C)/C=C/C=C(C)/C=C/c1c(C)cc(OC)c(C)c1C ? inactive

Any idea what this test logged for COC(=O)C1=C(C)NC(C)=C(C(=O)OCC(C)C)C1c1ccccc1[N+](=O)[O-] (configuration not stated) ? active

Any idea what this test logged for CC(C)(C)C1CCC(CC2=C(O)c3ccccc3C(=O)C2=O)CC1 (configuration not stated) ? inactive

Sourced from PubChem BioAssay (Tox21)
